- systemUnderTest: GPR6 (Homo sapiens, UniProt P46095)
- Construct: expressed in transfected cells; host or cells: CHO cells
- Sequence (P46095 whole entry): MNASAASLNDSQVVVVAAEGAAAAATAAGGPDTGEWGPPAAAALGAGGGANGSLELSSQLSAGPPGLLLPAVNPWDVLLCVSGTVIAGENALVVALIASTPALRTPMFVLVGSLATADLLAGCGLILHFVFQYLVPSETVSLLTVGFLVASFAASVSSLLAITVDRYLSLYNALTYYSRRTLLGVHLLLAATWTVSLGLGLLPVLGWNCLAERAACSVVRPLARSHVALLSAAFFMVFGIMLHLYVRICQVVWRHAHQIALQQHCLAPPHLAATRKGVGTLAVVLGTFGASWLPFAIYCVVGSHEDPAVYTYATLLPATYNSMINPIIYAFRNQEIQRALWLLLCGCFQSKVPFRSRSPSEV
- experiment: GPR6 antagonist functional cAMP assay (LANCE Ultra cAMP TR-FRET, CHO cells stably expressing GPR6)
- Format: cell-based
- cond: procedure of Example 24
pIC50: −log10 of the molar value.
Consider the following molecules; for each one, report its pIC50.

Answered examples (3):
{"columns": ["molecule", "systemUnderTest", "pIC50"],
 "data": [
  ["CC(=O)N1CCc2nc(N3CCCC(Oc4ccccc4F)C3)c(-c3cnn(C)c3)nc2C1 (centres unmarked) [Compound 336]", "GPR6 (Homo sapiens, UniProt P46095)", "≤ 4.52"],
  ["CC(=O)N1CCc2nc(N3CCC(=Cc4ccccc4)CC3)c(-c3cnn(C)c3)nc2C1 [Compound 646]", "GPR6 (Homo sapiens, UniProt P46095)", "6.00 to 7.00"],
  ["CCn1cc(-c2nc3cnc([C@](C)(O)C(C)(C)O)cc3nc2N2CCN(Cc3ccc(F)cc3F)CC2)cn1 (single isomer, unassigned) [Compound 697]", "GPR6 (Homo sapiens, UniProt P46095)", "6.00 to 7.00"]
]}

Each of the following entries comes with a recorded value; kindly state pIC50 for each.
1. CC(=O)Nc1cc2nc(N3CCC(Oc4ccc(F)cc4F)CC3)c(-c3cnn(C)c3)nc2cn1 [Compound 296]
2. CC(C)S(=O)(=O)N1CCc2nc(N3CCC(Oc4ccc(F)cc4F)CC3)c(-c3ccc(F)c(N)n3)nc2C1 [Compound 627]

1: 4.52 to 6.00; 2: 6.00 to 7.00

====

Consider the following molecules; for each one, report its pIC50.
- systemUnderTest: GPR3 (Homo sapiens, UniProt P46089)
- Construct: expressed in transfected cells; host or cells: CHO cells
- Sequence (P46089 whole entry, species assumed): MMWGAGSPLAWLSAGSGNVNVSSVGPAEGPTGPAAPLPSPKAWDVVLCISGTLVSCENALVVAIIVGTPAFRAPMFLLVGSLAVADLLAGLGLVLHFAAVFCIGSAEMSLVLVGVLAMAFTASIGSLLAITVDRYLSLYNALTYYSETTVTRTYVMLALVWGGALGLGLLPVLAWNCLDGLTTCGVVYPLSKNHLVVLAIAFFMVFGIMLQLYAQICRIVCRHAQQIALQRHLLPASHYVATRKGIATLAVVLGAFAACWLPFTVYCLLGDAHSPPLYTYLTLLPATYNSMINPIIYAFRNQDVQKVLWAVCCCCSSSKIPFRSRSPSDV
- experiment: GPR3 antagonist functional cAMP assay (LANCE Ultra cAMP TR-FRET, CHO cells stably expressing GPR3)
- Format: cell-based
- cond: procedure of Example 24
pIC50: −log10 of the molar value.

Answered examples (5):
{"columns": ["molecule", "systemUnderTest", "pIC50"],
 "data": [
  ["CC(=O)N1CCc2nc(N3CCN(Cc4ccc(OC(F)F)cc4F)CC3)c(-c3cnn(C)c3)nc2C1", "GPR3 (Homo sapiens, UniProt P46089)", "4.52 to 6.00"],
  ["Cn1cc(-c2nc3cnccc3nc2N2CCN(Cc3ccc(F)cc3F)C[C@H]2CO)cn1 (single isomer, unassigned)", "GPR3 (Homo sapiens, UniProt P46089)", "4.52 to 6.00"],
  ["CC(=O)N1CCc2nc(N3CCC(=C(C)c4ccc(F)cc4F)CC3)c(-c3cnn(C)c3)nc2C1", "GPR3 (Homo sapiens, UniProt P46089)", "4.52 to 6.00"],
  ["CC(=O)N1CCc2nc(N3CCC([C@@H](F)c4ccc(F)cc4F)CC3)c(-c3cnn(C)c3)nc2C1 (single isomer, unassigned)", "GPR3 (Homo sapiens, UniProt P46089)", "6.00 to 7.00"],
  ["CC(C)(O)[C@@H](O)c1cc2nc(-c3cnn(C(F)F)c3)c(N3CCN(Cc4ccccc4F)CC3)nc2cn1 (single isomer, unassigned)", "GPR3 (Homo sapiens, UniProt P46089)", "6.00 to 7.00"]
]}

Each of the following entries comes with a recorded value; kindly state pIC50 for each.
1. Cn1cc(-c2nc3cnc(C(=O)O)cc3nc2N2CCC(Oc3ccc(F)cc3F)CC2)cn1
2. COCC(C)(O)c1cc2nc(-c3cnn(C)c3)c(N3CCC(Oc4ccc(F)cc4F)CC3)nc2cn1 (stereo not drawn)
3. COC[C@](C)(O)c1cc2nc(-c3cnn(C)c3)c(N3CCC(Oc4ccc(F)cc4F)CC3)nc2cn1 (single isomer, unassigned)
4. CC(=O)N1CCc2nc(N3CCC(C(C)c4ccc(F)cc4F)CC3)c(-c3cnn(C)c3)nc2C1 (stereo not drawn)

["4.52 to 6.00", "4.52 to 6.00", "6.00 to 7.00", "4.52 to 6.00"]

====

- systemUnderTest: GPR6 (Homo sapiens)
- Construct: expressed in transfected cells; host or cells: CHO cells
- experiment: GPR6 antagonist functional cAMP assay (LANCE Ultra cAMP TR-FRET, CHO cells stably expressing GPR6)
- Format: cell-based
- cond: CHO cells stably expressing GPR6, cAMP assay (Example 24)
pIC50: −log10 of the molar value.
Consider the following compounds; for each one, report its pIC50.

Answered examples (4):
{"columns": ["compound", "pIC50"],
 "data": [
  ["CC(C)OC(=O)N1CCc2nc(N3CCC(Oc4ccc(F)cc4F)CC3)c(-c3cn[nH]c3)nc2C1 [Compound 121]", "6.00 to 7.00"],
  ["Cn1cc(-c2nc3cnc(CC(O)CO)cc3nc2N2CCC(Oc3ccc(F)cc3F)CC2)cn1 (centres unmarked) [Compound 377]", "6.00 to 7.00"],
  ["CC(=O)N1CCc2nc(N3CCC(C(=O)N(C)c4ccc(F)cc4)C3)c(-c3cnn(C)c3)nc2C1 (centres unmarked) [Compound 385]", "≤ 4.52"],
  ["CNc1nccc(-c2nc3c(nc2N2CCC(Oc4ccc(F)cc4F)CC2)CCN(C(C)=O)C3)n1 [Compound 473]", "6.00 to 7.00"]
]}

Each of the following entries comes with a recorded value; kindly state pIC50 for each.
1. COC(=O)c1cc2nc(N3CCC(Oc4ccc(F)cc4F)CC3)c(-c3cncc(OC)n3)nc2cn1 [Compound 221]
2. CNC(=O)C(C)N1CCc2nc(N3CCC(Oc4ccc(F)cc4F)CC3)c(-c3cn[nH]c3)nc2C1 (centres unmarked) [Compound 147]
3. CNC(=O)N1CCc2nc(N3CCC(Oc4ccc(F)cc4F)CC3)c(-c3cnn(C4CCCCO4)c3)nc2C1 (centres unmarked) [Compound 181]
4. O=C(C1COC1)N1CCc2nc(N3CCC(Oc4ccc(F)cc4F)CC3)c(-c3cn[nH]c3)nc2C1 [Compound 184]
5. N#CN1CCc2nc(N3CCC(Oc4ccc(F)cc4F)CC3)c(-c3cnn(C4CCCCO4)c3)nc2C1 (centres unmarked) [Compound 200]
6. CC(=O)N1CCc2nc(N3CCC(Oc4ccc(F)cc4F)CC3)c(-c3cnn(C(C)C#N)c3)nc2C1 (centres unmarked) [Compound 208]
7. O=C(N1CCc2nc(N3CCC(Oc4ccc(F)cc4F)CC3)c(-c3cn[nH]c3)nc2C1)N1CC(O)C1 [Compound 206]

4.52 to 6.00
4.52 to 6.00
4.52 to 6.00
> 7.00
4.52 to 6.00
6.00 to 7.00
6.00 to 7.00

====

- systemUnderTest: GPR3 (Homo sapiens)
- Construct: expressed in transfected cells; host or cells: CHO cells
- experiment: GPR3 antagonist functional cAMP assay (LANCE Ultra cAMP TR-FRET, CHO cells stably expressing GPR3)
- Format: cell-based
- cond: CHO cells stably expressing GPR3, cAMP assay
pIC50: −log10 of the molar value.
assayReadout: pIC50

Answered examples (2):
{"columns": ["molecule", "systemUnderTest", "pIC50"],
 "data": [
  ["CC(C)(O)C(O)c1cc2nc(-c3cnn(C4CC4)c3)c(N3CCN(Cc4ccc(F)cc4F)CC3)nc2cn1 (single isomer, unassigned) [Compound 601]", "GPR3 (Homo sapiens)", "4.52 to 6.00"],
  ["COC[C@H]1C[C@@H]1c1nc2c(nc1N1CCC(Oc3ccc(F)cc3F)CC1)CCN(C(C)=O)C2 [Compound 546]", "GPR3 (Homo sapiens)", "4.52 to 6.00"]
]}

Each of the following entries comes with a recorded value; kindly state pIC50 for each.
1. COc1ccc(OC2CCN(c3nc4c(nc3-c3cnn(C)c3)CN(C(C)=O)CC4)CC2)cn1 [Compound 498]
2. CC(=O)N1CCc2nc(N3CCC(=Cc4ccc(F)cc4F)CC3)c(-c3cnn(C)c3)nc2C1 [Compound 542]
3. CC(C)(O)C(C)(O)c1cc2nc(N3CCN(Cc4ccc(F)cc4F)CC3)c(-c3cnn(C4CC4)c3)nc2cn1 (stereo not drawn) [Compound 605]
4. COCC(C)(O)c1cc2nc(N3CCC(Oc4ccc(F)cc4F)CC3)c(-c3cnn(C)c3)nc2cn1 (stereo not drawn) [Compound 567]
5. CC(=O)N1CCc2nc(N3CCC(Cn4ccccc4=O)CC3)c(-c3cnn(C)c3)nc2C1 [Compound 522]

4.52 to 6.00
6.00 to 7.00
4.52 to 6.00
4.52 to 6.00
4.52 to 6.00

Each of the following entries comes with a recorded value; kindly state pIC50 for each.
1. CC(=O)N1CCc2nc(N3CCN(Cc4ccoc4)CC3)c(-c3cnn(C)c3)nc2C1 [Compound 529]
2. CC(C)(O)[C@@H](O)c1cc2nc(N3CCC(Oc4ccc(F)cc4F)CC3)c(-c3cnn(CF)c3)nc2cn1 (single isomer, unassigned) [Compound 597]

1: ≤ 4.52; 2: 4.52 to 6.00
